Hey, just so you know, these numbers are from patent US20130029928A1.

Protocol description: Phase I study CXR1002-001: plasma pharmacokinetics (LC-MS/MS)
Type: in vivo, human
Measurement conditions: human, plasma, po, 1200 mg, Patient 038, 1200 mg weekly oral dose, Time 506 hr; read-out: Concentration (plasma level)
Assay readout: concentration at 506 h (µM)
One number for each entry, in µM.

Need concentration at 506 h of `O=C(O)C(F)(F)C(F)(F)C(F)(F)C(F)(F)C(F)(F)C(F)(F)C(F)(F)F` , thanks.
658

###

Protocol description: Phase I study CXR1002-001: plasma pharmacokinetics (LC-MS/MS)
Assay type: in vivo, human
Measurement conditions: human, plasma, oral, 1200 mg, Patient 035, 1200 mg, person, plasma, 338 hr; read-out: Concentration
Assay readout: concentration at 338 hr (µM)
One number for each entry, in µM.

Need concentration at 338 hr of `O=C(O)C(F)(F)C(F)(F)C(F)(F)C(F)(F)C(F)(F)C(F)(F)C(F)(F)F` , thanks.
570

###

Protocol description: Phase I study CXR1002-001: plasma pharmacokinetics (LC-MS/MS)
Format: in vivo, human
Measurement conditions: human, plasma, po, 1200 mg, Patient 037, 1200 mg weekly oral dose, Time 340 hr; read-out: Concentration (plasma level)
Description: PK samples, PD (fasting) samples, blood glucose, and blood triglyceride samples, were taken over a 6-week period. Dose limiting toxicity (DLT) will be based on the toxicity assessments over the first 3-week period of the repeat dosing schedule. […]
Assay readout: concentration at 340 h

Need concentration at 340 h of O=C(O)C(F)(F)C(F)(F)C(F)(F)C(F)(F)C(F)(F)C(F)(F)C(F)(F)F [CXR1002] , thanks.
1030 µM

###

Protocol description: Phase I study CXR1002-001: plasma pharmacokinetics (LC-MS/MS)
Assay type: in vivo, human
Measurement conditions: human, plasma, oral, 1200 mg, Patient 034, 1200 mg, person, plasma, 506 hr; read-out: Concentration
Assay readout: concentration at 506 hr

Need concentration at 506 hr of `O=C(O)C(F)(F)C(F)(F)C(F)(F)C(F)(F)C(F)(F)C(F)(F)C(F)(F)F` , thanks.
1350 µM

###

Protocol description: Phase I study CXR1002-001: plasma pharmacokinetics (LC-MS/MS)
Format: in vivo, human
Measurement conditions: human, plasma, oral, 200 mg, Patient 010 Dose 200 mg; 172 hr; read-out: Concentration
Assay readout: concentration at 172 h
I'd appreciate it if you included the unit after the number.

Need concentration at 172 h of `O=C(O)C(F)(F)C(F)(F)C(F)(F)C(F)(F)C(F)(F)C(F)(F)C(F)(F)F` , thanks.
119 µM

###

Protocol description: Phase I study CXR1002-001: plasma pharmacokinetics (LC-MS/MS)
Format: in vivo, human
Measurement conditions: human, plasma, oral, 50 mg, Patient 001 Dose 50 mg; 1.5 hr
Assay readout: concentration at 1.5 h (µM)
Answers are plain numbers, in µM.

Need concentration at 1.5 h of `O=C(O)C(F)(F)C(F)(F)C(F)(F)C(F)(F)C(F)(F)C(F)(F)C(F)(F)F` , thanks.
25.7

###

Protocol description: Phase I study CXR1002-001: plasma pharmacokinetics (LC-MS/MS)
Assay type: in vivo, human
Measurement conditions: human, plasma, po, 1000 mg, Patient 041, 1000 mg weekly oral dose, Time 170 hr; read-out: Concentration (plasma level)
Text: PK samples, PD (fasting) samples, blood glucose, and blood triglyceride samples, were taken over a 6-week period. Dose limiting toxicity (DLT) will be based on the toxicity assessments over the first 3-week period of the repeat dosing schedule. […]
Assay readout: concentration at 170 hr (µM)
Numbers only, in µM.

Need concentration at 170 hr of `O=C(O)C(F)(F)C(F)(F)C(F)(F)C(F)(F)C(F)(F)C(F)(F)C(F)(F)F` , thanks.
342
